Origin of values: PubChem BioAssay AID2241

# ASSAY_INFO: caspase activation in A1-primed MEFs – cell-based, CaspaseGlo luminescence, A1 inhibitor project, primary screen (AID 2241);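 note: effector caspase 3 and 7 activity cleaving a DEVD luciferin substrate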
# ASSAY_SETUP: MEF A1-2A-BIM cells, caspase-Glo luminescence, 3 h; stronger effect = higher value; percent of clofoctol signal, DMSO as zero; concentration not given here
Screen size: about 21,000 compounds; about 110 (0.52%) were called active. What follows is part of a selection rich in actives, with near analogues and random picks from the rest.
QUANTITY_MEASURED: caspase activation (%)
Numbers only, in %.

Example entries and their recorded answers appear below.
COMPOUND: O=C(CCn1c(=S)[nH]c2cc3c(cc2c1=O)OCO3)NC1CCCC1
caspase activation (%): -1.11

COMPOUND: O=C(O)CCCC=C(c1ccccc1)c1ccccc1
caspase activation (%): -0.527

Here are 4 compounds. What values of caspase activation were reported for them?
1. CCC(=O)Nc1ccccc1C(=O)Nc1ccccc1
2. CC(C)CC1NC(=O)N(c2ccccc2)C1=O (stereo unspecified)
3. Cc1cccc(NC(=O)C2C3CC/C=C\CCC32)c1 (stereo unspecified)
4. Fc1cc(F)cc(NC(=S)NCCN(C2CCCCC2)C2CCCC2)c1

1: 0.303; 2: 0.301; 3: 1.35; 4: -0.0874

* * *

# ASSAY_INFO: caspase activation in A1-primed MEFs – cell-based, CaspaseGlo luminescence, A1 inhibitor project, primary screen (AID 2241);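 note: effector caspase 3 and 7 activity cleaving a DEVD luciferin substrate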
# ASSAY_SETUP: MEF A1-2A-BIM cells, caspase-Glo luminescence, 3 h; percent of clofoctol signal, DMSO as zero; concentration not given here
In all, about 21,000 compounds went through this assay and about 110 (0.52%) were called active.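 Rule for the calls: active = most replicate scores above 10, or exactly half above 10 with mean activity above 10; inconclusive = mean activity below 10 while half the replicates exceed 10; inactive = most replicate scores below 10.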 For the sample, actives were picked, then their nearest neighbours and some compounds at random.
# output must be one of yes (1) (active), no (0) (inactive)

Here are 10 molecules together with their reported answers.
MOLECULE: CC[C@H]1CN2CCc3cc(OC)c(OC)cc3[C@@H]2C[C@@H]1C[C@H]1NCCc2cc(OC)c(OC)cc21
CATEGORY_LABEL: yes (1)
//
MOLECULE: CC(C)[C@H](CO)Nc1nc(Nc2cc(N)cc(Cl)c2)c2ncn(C(C)C)c2n1
CATEGORY_LABEL: yes (1)
//
MOLECULE: CCOC(=O)c1cn(CC)c2cc(F)c(F)cc2c1=O
CATEGORY_LABEL: no (0)
//
MOLECULE: CC(=O)N1N=C(c2ccccc2)OC1c1cccnc1 (stereo not given)
CATEGORY_LABEL: no (0)
//
MOLECULE: COc1ccc(S(=O)(=O)Nc2ccc3c(c2)C(=O)N([C@H](C)CO)C[C@@H](C)[C@H](CN(C)C(=O)Nc2ccc4c(c2)OCO4)O3)cc1
CATEGORY_LABEL: no (0)
//
MOLECULE: COc1cc2c(cc1OC)C1CN3CCc4cc(OC)c(OC)cc4C3CN1CC2 (stereo not given)
CATEGORY_LABEL: no (0)
//
MOLECULE: Cc1ccc(S(=O)(=O)Nc2ccc3oc(C)c(C(=O)NN)c3c2)cc1
CATEGORY_LABEL: no (0)
//
MOLECULE: NC(=O)c1nnc2cc(-c3ccccc3)nn2c1N
CATEGORY_LABEL: no (0)
//
MOLECULE: Cc1ccc(S(=O)(=O)c2no[n+]([O-])c2S(=O)(=O)c2ccc(C)cc2)cc1
CATEGORY_LABEL: no (0)
//
MOLECULE: O=C(c1ccccc1)C(CC(=O)N1CCOCC1)c1ccccc1 (stereo not given)
CATEGORY_LABEL: no (0)

Call for entry `C[C@@H]1CN([C@@H](C)CO)C(=O)c2cc(NS(=O)(=O)c3ccccc3)ccc2O[C@H]1CN(C)S(=O)(=O)c1ccc(Cl)cc1` :
no (0)

One more molecule: CC(C)OC(=O)C1=c2s/c(=C\c3cccnc3)c(=O)n2C(N)=C(C#N)C1c1cccnc1 (stereo not given)
no (0)

Here is the next molecule: `CCOC(=O)N1CCC(NC(=O)NCc2noc3ccccc23)CC1`
no (0)

Lookup `COc1ccc(-c2cc(C(F)(F)F)nc(SCC(=O)N3CCCCCC3)n2)cc1OC`
no (0)

* * *

# ASSAY_INFO: caspase activation in A1-primed MEFs – cell-based, CaspaseGlo luminescence, A1 inhibitor project, primary screen (AID 2241);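 note: effector caspase 3 and 7 activity cleaving a DEVD luciferin substrate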
# ASSAY_SETUP: MEF A1-2A-BIM cells, caspase-Glo luminescence, 3 h; stronger effect = higher value; percent of clofoctol signal, DMSO as zero; concentration not given here
Among all 21,000 compounds or so, about 110 (0.52%) were called active. Only a selection was taken, and actives are over-represented in it overall.
QUANTITY_MEASURED: caspase activation (%)
Numbers only, in %.

COMPOUND: COc1ccc(S(=O)(=O)Nc2ccc3c(c2)C(=O)N([C@@H](C)CO)C[C@H](C)[C@H](CN(C)Cc2ccc(C(=O)O)cc2)O3)cc1
caspase activation (%): 0.618
--
COMPOUND: CC(=O)Oc1ccc(C2OCC3C(C)C=C(C)C2C3C)cc1 (stereo not drawn)
caspase activation (%): 0.946
--
COMPOUND: Cc1ccccc1N(C)S(=O)(=O)c1ccc2[nH]cc(C(=O)NCCC(C)C)c(=O)c2c1
caspase activation (%): 0.114
--
COMPOUND: CN(CCOC(=O)C1c2ccccc2Oc2ccccc21)Cc1ccccc1
caspase activation (%): 1.21
--
COMPOUND: CCCOc1ccc(Oc2nc(N(C)C)nc(N(C)C)n2)nn1
caspase activation (%): 0.458

Could I get caspase activation for every one of these entries?
1. C[C@H]1CN([C@@H](C)CO)C(=O)c2cc(NC(=O)C3CC3)ccc2O[C@@H]1CN(C)Cc1ccc(Oc2ccccc2)cc1
2. CC(C)(C)c1ccc(/C=C/C(=O)NC2CCS(=O)(=O)C2)cc1 (stereo not drawn)

0.539
-0.861

Give caspase activation for each of the items listed below.
1. O=C(CC1SC(=NC2CC3C=CC2C3)NC1=O)Nc1ccccc1Cl (stereo not drawn)
2. COc1ccc(-c2nn(C)c3ccccc23)cc1
3. CCCCn1c2nc3ccccc3nc2c2c(N)ncnc21

1. 0.103
2. -6.81
3. -0.174

* * *

# ASSAY_INFO: caspase activation in A1-primed MEFs – cell-based, CaspaseGlo luminescence, A1 inhibitor project, primary screen (AID 2241);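 note: effector caspase 3 and 7 activity cleaving a DEVD luciferin substrate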
# ASSAY_SETUP: MEF A1-2A-BIM cells, caspase-Glo luminescence, 3 h; stronger effect = higher value; percent of clofoctol signal, DMSO as zero; concentration not given here
The campaign covered roughly 21,000 compounds. About 110 (0.52%) were called active. For the sample, actives were picked, then their nearest neighbours and some compounds at random.
Kindly supply the reported caspase activation values for the records listed here.
Answers are plain numbers, in %.

// solved cases for caspase activation follow
STRUCTURE: C[C@@H]1CN([C@H](C)CO)C(=O)c2cc(NC(=O)Cc3cn(C)c4ccccc34)ccc2O[C@@H]1CN(C)S(=O)(=O)c1cccs1
DISPLAY_UNIT: %
caspase activation: -0.00537

STRUCTURE: COc1ccccc1C(=O)N/C(=C\c1ccccc1)C(=O)N1CCOCC1
DISPLAY_UNIT: %
caspase activation: -0.546

STRUCTURE: CC1CCN(S(=O)(=O)c2ccc3nc(-c4ccccn4)cc(C(=O)NC4CCCC4)c3c2)CC1
DISPLAY_UNIT: %
caspase activation: -1.16

STRUCTURE: COc1cc(C=Nc2ccc(Cl)cc2)ccc1OC(=O)/C=C/c1cccs1
DISPLAY_UNIT: %
caspase activation: -0.187

STRUCTURE: O=C(NCSc1nc2ccccc2s1)c1ccco1
DISPLAY_UNIT: %
caspase activation: 0.614

// for each molecule in input: emit caspase activation
1. COc1ccc(OC(=O)c2csc(Cc3c(Cl)cccc3Cl)n2)cc1
2. C[C@@H]1CN([C@@H](C)CO)C(=O)c2cc(NC(=O)Nc3ccc(F)cc3)ccc2O[C@H]1CN(C)CC1CCCCC1
3. C[C@@H]1CN([C@H](C)CO)C(=O)c2cc(NC(=O)NC3CCCCC3)ccc2O[C@H]1CN(C)S(C)(=O)=O
4. C[C@@H]1CN([C@H](C)CO)C(=O)c2cc(N(C)C)ccc2O[C@@H]1CN(C)S(C)(=O)=O

1. 1.94
2. 0.271
3. 0.129
4. 1.19

* * *

Provide the recorded caspase activation for the entries that follow.
# ASSAY_INFO: caspase activation in A1-primed MEFs – cell-based, CaspaseGlo luminescence, A1 inhibitor project, primary screen (AID 2241);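 note: effector caspase 3 and 7 activity cleaving a DEVD luciferin substrate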
# ASSAY_SETUP: MEF A1-2A-BIM cells, caspase-Glo luminescence, 3 h; stronger effect = higher value; percent of clofoctol signal, DMSO as zero; concentration not given here
The whole screen tested about 21,000 compounds, of which about 110 (0.52%) were called active. For the sample, actives were picked, then their nearest neighbours and some compounds at random.
Give bare numbers, in %.

MOLECULE: O=C(/C=C/c1ccccc1)c1ccc(O[C@@H]2O[C@H](CO)[C@@H](O)[C@H](O)[C@H]2O)cc1O
QUANTITY_MEASURED: caspase activation
EXPERIMENTAL_RESULT: -0.127
//
MOLECULE: NC(=O)N1CCc2ccccc21
QUANTITY_MEASURED: caspase activation
EXPERIMENTAL_RESULT: 0.412
//
MOLECULE: CCOC(=O)c1cc(-c2ccnn2S(=O)(=O)c2ccc(C)cc2)on1
QUANTITY_MEASURED: caspase activation
EXPERIMENTAL_RESULT: -0.165

Would you mind giving caspase activation for every molecule in the list below?
1. O=C(CC(=O)c1ccccc1O)c1ccccc1
2. COc1ccc(NC(=O)Nc2ccc3c(c2)C(=O)N([C@@H](C)CO)C[C@H](C)[C@@H](CN(C)C(=O)NC2CCCCC2)O3)cc1
3. Cc1nn(C(C)C(=O)NC2CCCCCC2)c(=O)c2cc3occc3n12 (stereo unspecified)

1: -2.59; 2: -0.437; 3: 0.379
